# measured.on: Human vanilloid receptor (hVR1) (Homo sapiens)
# Sequence (Q8NER1 whole entry): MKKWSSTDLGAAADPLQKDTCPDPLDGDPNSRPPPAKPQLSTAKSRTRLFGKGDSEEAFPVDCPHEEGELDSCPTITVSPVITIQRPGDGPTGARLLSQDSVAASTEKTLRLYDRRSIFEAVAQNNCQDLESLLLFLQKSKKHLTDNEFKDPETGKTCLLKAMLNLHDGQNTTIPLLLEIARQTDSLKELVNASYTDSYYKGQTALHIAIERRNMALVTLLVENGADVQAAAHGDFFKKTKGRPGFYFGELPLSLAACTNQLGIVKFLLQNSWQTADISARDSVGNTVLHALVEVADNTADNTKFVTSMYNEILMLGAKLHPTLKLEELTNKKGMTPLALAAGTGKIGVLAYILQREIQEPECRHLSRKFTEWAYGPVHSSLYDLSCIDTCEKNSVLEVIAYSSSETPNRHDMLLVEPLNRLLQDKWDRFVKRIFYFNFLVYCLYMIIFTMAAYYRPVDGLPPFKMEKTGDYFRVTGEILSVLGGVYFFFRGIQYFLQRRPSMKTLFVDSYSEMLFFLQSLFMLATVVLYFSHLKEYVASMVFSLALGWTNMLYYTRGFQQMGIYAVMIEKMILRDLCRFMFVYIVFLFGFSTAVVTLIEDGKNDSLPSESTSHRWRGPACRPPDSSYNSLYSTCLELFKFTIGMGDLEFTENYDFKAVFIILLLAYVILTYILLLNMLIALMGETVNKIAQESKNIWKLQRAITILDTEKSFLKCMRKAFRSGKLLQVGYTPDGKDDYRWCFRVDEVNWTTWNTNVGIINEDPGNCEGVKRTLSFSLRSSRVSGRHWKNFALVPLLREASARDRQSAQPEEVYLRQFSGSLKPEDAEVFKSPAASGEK
# test.details: Capsaicin-induced Ca2+ influx in the human VR1-transfected CHO cell line (Assay 1)
# study.conditions: human VR1-CHOluc9aeq cells, stimulation with 10 nM capsaicin, Fluo-3 fluorescence (FDSS-3000); read-out: Activity Class (IC50)
We begin with a simple list: items and their reported IC50.

Check the records and state IC50 for O=C(Nc1cccc2c1CC(O)CC2)C1CCN(c2ccc(C(F)(F)F)cc2[N+](=O)[O-])CC1 (stereo not shown) [Example 1-5] < 100 nM

Please look at this compound and report its IC50: O=C(Nc1cccc2c1CC(O)CC2)C1CCN(c2ccccc2[N+](=O)[O-])CC1 (stereo not shown) [Example 1-4] < 100 nM

Report IC50 for CC(=O)Nc1cc(C(F)(F)F)ccc1N1CCC(C(=O)Nc2cccc3c2C[C@H](O)CC3)CC1 [Example 1-23] < 100 nM

---
Tell me IC50 reported for O=C(Nc1cccc2c1C[C@H](O)CC2)C1CCN(c2ccc(F)cc2)CC1 [Example 1-11] < 100 nM

###

experimental.endpoint: melting point (°C)

Output measured melting point for this item: O=C(Nc1cccc2c1CC(O)CC2)C1CCN(c2ccc(F)cc2)CC1 (stereo not shown) [Example 1-7] 205

Tell me measured melting point for O=C(Nc1cccc2c1CC(O)CC2)C1CCN(c2ccccc2F)CC1 (stereo not shown) [Example 1-6] please. 207

Entry O=C(Nc1cccc2c1CC(O)CC2)C1CCN(c2ccc(C(F)(F)F)cc2)CC1 (stereo not shown) [Example 1-9] needs its melting point filled in; supply it. 222

Hello, please tell me recorded melting point for this one: O=C(Nc1cccc2c1C[C@@H](O)CC2)C1CCN(c2ccc(F)cc2)CC1 [Example 1-12] 205

Find the measured melting point of O=C(Nc1cccc2c1CC(O)CC2)C1CCN(c2ccc(Cl)cc2C(F)(F)F)CC1 (stereo not shown) [Example 1-8] and report it. 182

Note melting point for the molecule shown: O=C(Nc1cccc2c1CC(O)CC2)C1CCN(c2ccc(C(F)(F)F)cc2[N+](=O)[O-])CC1 (stereo not shown) [Example 1-5] 218

Please give measured melting point of the following entry: O=C(Nc1cccc2c1CC(O)CC2)C1CCN(c2ccccc2Cl)CC1 (stereo not shown) [Example 1-3] 210
